Data provenance: patent US20210380703A1

assayed-target: T1, Goat anti-Human Kappa
T1 construct: Positive control; also called biotinylated goat anti-human kappa light chain
assay-remarks: ELISA; positive control; further: test concentration or dose not given here
Measured optical density, listed per entry for reference.

binder: 365_D11 (antibody, V domains shown, VH/VL only) VH: EVQLLESGGGLVQPGGSLRLSCAASGFTFDSYGMNWVRQAPGKGLEWVSNINYNSGYTSYADSVKGRFTISRDNSKNTLYLQMNSLRAEDTAVYYCARSANWHDTALDYWGQGTLVTVSS VL: DIQMTQSPSSLSASVGDRVTITCRASQSIVSYLNWYQQKPGKAPKLVIYAATSRASGVPSRFSGSGSGTDFTLTISSLQPEDFATYYCQQSYSSPLTFGGGTKVEIK
reading-unit: OD
optical density: 3.38

binder: 365_H06 (antibody, V domains shown, VH/VL only) VH: EVQLLESGGGLVQPGGSLRLSCAASGFTFSSYGMNWVRQAPGKGLEWVSGINYNSGYTGYADSVKGRFTISRDNSKNTLYLQMNSLRAEDTAVYYCARSANWHDTALDYWGQGTLVTVSS VL: DIQMTQSPSSLSASVGDRVTITCRASQSISSYVNWYQQKPGKAPKLLIYAATSRASGVPSRFSGSGSGTDFTLTISSLQPEDFATYYCQQSYSTPLTFGGGTKVEIK
reading-unit: OD
optical density: 3.44

binder: 367_A04 (antibody, V domains shown, VH/VL only) VH: EVQLLESGGGLVQPGGSLRLSCAASGFTFSSYSMNWVRQAPGKGLEWVSNINYNSGYKSYADSVKGRFTISRDNSKNTLYLQMNSLRAEDTAVYYCARSANWHDTALDYWGQGTLVTVSS VL: DIQMTQSPSSLSASVGDRVTITCRASQSIITYLNWYQQKPGKAPKLLIYAATSRASGVPSRFSGSGSGTDFTLTISSLQPEDFATYYCQQSDDSPLTFGGGTKVEIK
reading-unit: OD
optical density: 3.3

binder: 372_B09 (antibody, V domains shown, VH/VL only) VH: EVQLLESGGGLVQPGGSLRLSCAASGFTFSSYSMNWVRQAPGKGLEWVSSINYNSGYTSYADSVKGRFTISRDNSKNTLYLQMNSLRAEDTAVYYCARGATWHDTHLDYWGQGTLVTVSS VL: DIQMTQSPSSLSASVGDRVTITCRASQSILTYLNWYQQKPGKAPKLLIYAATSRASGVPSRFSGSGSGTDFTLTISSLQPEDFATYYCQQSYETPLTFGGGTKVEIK
reading-unit: OD
optical density: 3.5

binder: 376_G10 (antibody, V domains shown, VH/VL only) VH: EVQLLESGGGLVQPGGSLRLSCAASGFTFDSYGMNWVRQAPGKGLEWVAGINYNGGYTSYADSVKGRFTISRDNSKNTLYLQMNSLRAEDTAVYYCARGANWHDTALDYWGQGTLVTVSS VL: DIQMTQSPSSLSASVGDRVTITCRASQSILSYVNWYQQKPGKAPKLLIYAATSRASGVPSRFSGSGSGTDFTLTISSLQPEDFATYYCQQSYESPLTFGGGTKVEIK
reading-unit: OD
optical density: 3.54

binder: 373_B09 (antibody, V domains shown, VH/VL only) VH: EVQLLESGGGLVQPGGSLRLSCAASGFTFDSYSMNWVRQAPGKGLEWVSGINYNGGYKSYADSVKGRFTISRDNSKNTLYLQMNSLRAEDTAVYYCARGATWHDTHLDYWGQGTLVTVSS VL: DIQMTQSPSSLSASVGDRVTITCRASQSILSYLNWYQQKPGKAPKLVIYAATSLASGVPSRFSGSGSGTDFTLTISSLQPEDFATYYCQQSYETPLTFGGGTKVEIK
reading-unit: OD
optical density: 3.24

binder: 366_B10 (antibody, V domains shown, VH/VL only) VH: EVQLLESGGGLVQPGGSLRLSCAASGFTFSSYGMNWVRQAPGKGLEWVSGINYNSGYTSYADSVKGRFTISRDNSKNTLYLQMNSLRAEDTAVYYCARSANWHDTALDYWGQGTLVTVSS VL: DIQMTQSPSSLSASVGDRVTITCRASQSIISYLNWYQQKPGKAPKLLIYAATSRASGVPSRFSGSGSGTDFTLTISSLQPEDFATYYCQQSYDNPLTFGGGTKVEIK
reading-unit: OD
optical density: 3.06

binder: 371_F09 (antibody, V domains shown, VH/VL only) VH: EVQLLESGGGLVQPGGSLRLSCAASGFTFSSYSMNWVRQAPGKGLEWVAGINYNGGYTSYADSVKGRFTISRDNSKNTLYLQMNSLRAEDTAVYYCARGATWHDTHLDYWGQGTLVTVSS VL: DIQMTQSPSSLSASVGDRVTITCRASQSILTYLNWYQQKPGKAPKLLIYAATSRASGVPSRFSGSGSGTDFTLTISSLQPEDFATYYCQQSYDNPLTFGGGTKVEIK
reading-unit: OD
optical density: 3.6

binder: 375_C11 (antibody, V domains shown, VH/VL only) VH: EVQLLESGGGLVQPGGSLRLSCAASGFTFSSYSMNWVRQAPGKGLEWVSSINYNGGYTSYADSVKGRFTISRDNSKNTLYLQMNSLRAEDTAVYYCARGATWHDTHLDYWGQGTLVTVSS VL: DIQMTQSPSSLSASVGDRVTITCRASQSILSYVNWYQQKPGKAPKLLIYAATSRHSGVPSRFSGSGSGTDFTLTISSLQPEDFATYYCQQSYDTPLTFGGGTKVEIK
reading-unit: OD
optical density: 3.26

binder: 365_B01 (antibody, V domains shown, VH/VL only) VH: EVQLLESGGGLVQPGGSLRLSCAASGFTFDSYGMHWVRQAPGKGLEWVASINYNSGYTSYADSVKGRFTISRDNSKNTLYLQMNSLRAEDTAVYYCARSANWHDTALDYWGQGTLVTVSS VL: DIQMTQSPSSLSASVGDRVTITCRASQSISSYVNWYQQKPGKAPKLVIYAATSRASGVPSRFSGSGSGTDFTLTISSLQPEDFATYYCQQSYESPLTFGGGTKVEIK
reading-unit: OD
optical density: 3.49
